# assay comment: Terminal half life in nude mouse at 4 umol/kg, iv and 10 umol/kg, po
# Type: ADME, organism-based
# conditions used: in vivo, read-out: beta t1/2 (converted)
endpoint: half-life (min)
Give bare numbers, in min.

Record COc1cc(N2CCN(C(C)=O)CC2)ccc1Nc1ncc(Cl)c(-c2cnc3ccccn23)n1 , field half-life: 54

###

# experimental target: Insulin receptor (Homo sapiens, UniProt P06213)
# Sequence (P06213 28-758 limits assumed): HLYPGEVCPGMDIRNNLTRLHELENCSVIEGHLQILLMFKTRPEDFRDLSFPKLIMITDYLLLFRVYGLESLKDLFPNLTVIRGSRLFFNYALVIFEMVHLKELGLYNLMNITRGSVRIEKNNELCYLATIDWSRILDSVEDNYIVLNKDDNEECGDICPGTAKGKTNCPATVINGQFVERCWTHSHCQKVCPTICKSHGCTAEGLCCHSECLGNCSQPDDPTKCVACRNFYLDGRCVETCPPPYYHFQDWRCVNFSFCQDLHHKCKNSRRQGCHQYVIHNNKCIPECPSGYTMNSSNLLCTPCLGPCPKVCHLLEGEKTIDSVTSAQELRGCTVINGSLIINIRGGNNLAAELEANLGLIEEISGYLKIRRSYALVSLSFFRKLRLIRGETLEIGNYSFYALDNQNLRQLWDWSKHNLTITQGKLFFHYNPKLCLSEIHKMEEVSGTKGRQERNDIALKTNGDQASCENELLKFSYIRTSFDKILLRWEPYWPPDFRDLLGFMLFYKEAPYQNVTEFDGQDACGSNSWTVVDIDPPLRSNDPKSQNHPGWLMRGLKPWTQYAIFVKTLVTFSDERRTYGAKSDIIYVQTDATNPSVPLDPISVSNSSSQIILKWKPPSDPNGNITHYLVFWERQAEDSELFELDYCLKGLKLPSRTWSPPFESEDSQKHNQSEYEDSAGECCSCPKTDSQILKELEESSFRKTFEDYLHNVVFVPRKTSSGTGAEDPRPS
# Sequence (P06213 763-1382 limits assumed): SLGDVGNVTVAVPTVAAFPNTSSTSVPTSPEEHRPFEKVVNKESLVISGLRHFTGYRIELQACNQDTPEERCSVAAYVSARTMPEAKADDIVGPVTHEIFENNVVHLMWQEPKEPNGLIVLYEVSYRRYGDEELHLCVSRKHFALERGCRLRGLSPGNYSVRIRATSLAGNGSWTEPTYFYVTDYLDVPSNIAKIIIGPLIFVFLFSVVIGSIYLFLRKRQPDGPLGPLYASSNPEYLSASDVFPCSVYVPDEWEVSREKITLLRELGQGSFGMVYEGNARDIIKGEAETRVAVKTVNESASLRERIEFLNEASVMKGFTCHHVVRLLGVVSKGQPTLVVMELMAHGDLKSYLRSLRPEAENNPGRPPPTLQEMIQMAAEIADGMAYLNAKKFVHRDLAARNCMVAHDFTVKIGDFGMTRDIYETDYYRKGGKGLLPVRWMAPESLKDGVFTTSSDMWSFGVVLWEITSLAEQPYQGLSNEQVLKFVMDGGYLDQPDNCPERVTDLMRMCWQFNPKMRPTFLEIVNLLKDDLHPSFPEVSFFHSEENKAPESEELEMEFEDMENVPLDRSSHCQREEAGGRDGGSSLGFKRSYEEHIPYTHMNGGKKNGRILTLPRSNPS
# assay comment: Inhibition of insulin receptor
endpoint: pIC50
Numbers only, as −log10 of the molar value.

// assay Insulin receptor (Homo sapiens, UniProt P06213), entry COc1cc(N2CCN(C(C)=O)CC2)ccc1Nc1ncc(Cl)c(-c2cnc3ccccn23)n1 , pIC50 value = 8.05

###

# assay comment: Oral bioavailability in Beagle dog at 10 umol/kg
# Type: ADME, organism-based, Canis lupus familiaris
# conditions used: in vivo
endpoint: bioavailability
Express the reported value numerically, then name its unit.

Record COc1cc(N2CCN(C(C)=O)CC2)ccc1Nc1ncc(Cl)c(-c2cnc3ccccn23)n1 , field bioavailability: 30%

###

# assay comment: Terminal half life in Beagle dog at 0.8 umol/kg, iv and 10 umol/kg, po
# Assay type: ADME, organism-based, Canis lupus familiaris
# conditions used: in vivo, read-out: beta t1/2 (converted)
endpoint: half-life (h)
Answers are plain numbers, in h.

Record COc1cc(N2CCN(C(C)=O)CC2)ccc1Nc1ncc(Cl)c(-c2cnc3ccccn23)n1 , field half-life: 5.5

###

# assay comment: Intrinsic clearance in rat hepatocytes assessed per 10^6 cells
# Type: ADME, cell-based, Liver, Hepatocyte
endpoint: hepatocyte CLint (µL/min/1e6 cells)
One number for each entry, in µL/min/1e6 cells.

Record COc1cc(N2CCN(C(C)=O)CC2)ccc1Nc1ncc(Cl)c(-c2cnc3ccccn23)n1 , field hepatocyte CLint: 15

###

# assay comment: Terminal half life in Han Wistar rat at 4 umol/kg, iv and 10 umol/kg, po
# Format: ADME, organism-based
# conditions used: in vivo, read-out: beta t1/2 (converted)
endpoint: half-life (h)
One number for each entry, in h.

Record COc1cc(N2CCN(C(C)=O)CC2)ccc1Nc1ncc(Cl)c(-c2cnc3ccccn23)n1 , field half-life: 4.6

###

# experimental target: UniProt P06213
# assay comment: Inhibition of insulin-induced autophosphorylation of human insulin receptor expressed in CHO cells
# Assay type: cell-based
endpoint: IC50
Express the reported value numerically, then name its unit.

Record COc1cc(N2CCN(C(C)=O)CC2)ccc1Nc1ncc(Cl)c(-c2cnc3ccccn23)n1 , field IC50: 12 nM

###

# assay comment: Intrinsic clearance in mouse hepatocytes assessed per 10^6 cells
# Format: ADME, cell-based, Liver, Hepatocyte
endpoint: hepatocyte CLint (µL/min/1e6 cells)
Answers are plain numbers, in µL/min/1e6 cells.

Record COc1cc(N2CCN(C(C)=O)CC2)ccc1Nc1ncc(Cl)c(-c2cnc3ccccn23)n1 , field hepatocyte CLint: 32

###

# experimental target: Insulin-like growth factor 1 receptor (Homo sapiens, UniProt P08069)
# Sequence (P08069 31-736 limits assumed): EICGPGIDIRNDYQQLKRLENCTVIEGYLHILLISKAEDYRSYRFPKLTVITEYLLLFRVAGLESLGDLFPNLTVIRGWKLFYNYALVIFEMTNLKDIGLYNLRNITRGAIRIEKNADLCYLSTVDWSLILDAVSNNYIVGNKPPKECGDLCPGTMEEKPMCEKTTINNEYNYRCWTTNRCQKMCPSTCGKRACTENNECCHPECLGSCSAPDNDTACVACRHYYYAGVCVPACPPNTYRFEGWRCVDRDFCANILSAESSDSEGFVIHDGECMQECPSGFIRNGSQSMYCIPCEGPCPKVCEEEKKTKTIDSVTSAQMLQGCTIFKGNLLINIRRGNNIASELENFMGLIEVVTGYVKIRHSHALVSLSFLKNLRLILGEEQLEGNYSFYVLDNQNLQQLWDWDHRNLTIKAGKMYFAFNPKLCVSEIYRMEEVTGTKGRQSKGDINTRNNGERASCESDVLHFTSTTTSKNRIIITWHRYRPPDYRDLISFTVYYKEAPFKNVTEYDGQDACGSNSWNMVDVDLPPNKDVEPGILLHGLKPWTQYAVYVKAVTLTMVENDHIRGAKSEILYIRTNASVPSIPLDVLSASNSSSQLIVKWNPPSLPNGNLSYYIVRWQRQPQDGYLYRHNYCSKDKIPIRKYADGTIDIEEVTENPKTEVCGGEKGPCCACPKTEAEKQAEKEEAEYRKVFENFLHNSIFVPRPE
# Sequence (P08069 741-1367 limits assumed): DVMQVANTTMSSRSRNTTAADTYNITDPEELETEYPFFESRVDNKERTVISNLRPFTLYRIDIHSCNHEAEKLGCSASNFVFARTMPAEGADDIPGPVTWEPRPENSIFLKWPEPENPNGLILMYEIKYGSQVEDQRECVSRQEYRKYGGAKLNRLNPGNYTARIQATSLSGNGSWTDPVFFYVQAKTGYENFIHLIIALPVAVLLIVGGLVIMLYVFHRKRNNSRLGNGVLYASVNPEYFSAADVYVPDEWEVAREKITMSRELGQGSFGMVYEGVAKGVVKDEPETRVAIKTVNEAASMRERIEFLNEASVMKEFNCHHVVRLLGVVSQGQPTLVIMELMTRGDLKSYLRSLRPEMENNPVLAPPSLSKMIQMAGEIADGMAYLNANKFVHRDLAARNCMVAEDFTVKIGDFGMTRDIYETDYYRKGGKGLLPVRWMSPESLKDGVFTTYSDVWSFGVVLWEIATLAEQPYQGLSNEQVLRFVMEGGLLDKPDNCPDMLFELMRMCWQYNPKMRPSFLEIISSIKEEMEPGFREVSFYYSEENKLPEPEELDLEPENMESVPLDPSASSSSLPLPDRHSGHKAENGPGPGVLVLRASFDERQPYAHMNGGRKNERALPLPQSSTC
# assay comment: Inhibition of IGF1R
endpoint: pIC50
One number for each entry, as −log10 of the molar value.

[[record]]
smiles_text = "CC(=O)N1CCN(c2ccc(Nc3nccc(-c4cnc5ccccn45)n3)cc2)CC1"
experimental_target = "Insulin-like growth factor 1 receptor (Homo sapiens, UniProt P08069)"
test_value = 6.57

[[record]]
smiles_text = "COc1cc(N2CCN(C(C)=O)CC2)ccc1Nc1ncc(F)c(-c2cnc3ccccn23)n1"
experimental_target = "Insulin-like growth factor 1 receptor (Homo sapiens, UniProt P08069)"
test_value = 7.05

[[record]]
smiles_text = "NS(=O)(=O)c1ccc(Nc2nccc(-c3cnc4ccccn34)n2)cc1"
experimental_target = "Insulin-like growth factor 1 receptor (Homo sapiens, UniProt P08069)"
test_value = 5.90


Report pIC50 for every entry below.
1. COc1cc(N2CCN(C(C)=O)CC2)ccc1Nc1nccc(-c2cnc3ccccn23)n1
2. COc1cc(N2CCN(C(C)=O)CC2)ccc1Nc1ncc(Br)c(-c2cnc3ccccn23)n1

Result string:
1: 6.35; 2: 8.52

###

# experimental target: Insulin-like growth factor 1 receptor (Homo sapiens)
# assay comment: Inhibition of IGF1-induced autophosphorylation of human recombinant IGF1R expressed in mouse fibroblasts by high throughput assay
endpoint: log10(IC50) (log10 of the value in nM)
Parameter value (number): base-10 log of IC50 in nM.

Report log10(IC50) for every entry below.
1. COc1cc(N2CCN(C(C)=O)CC2)ccc1Nc1ncc(OC)c(-c2cnc3ccccn23)n1
2. COc1cc(N2CCN(C(C)=O)CC2)ccc1Nc1ncc(C)c(-c2cnc3ccccn23)n1
3. COc1cc(N2CCN(C(C)=O)CC2)ccc1Nc1ncc(F)c(-c2cnc3ccccn23)n1
4. COc1cc(N2CCN(C(C)=O)CC2)ccc1Nc1ncc(Br)c(-c2cnc3ccccn23)n1
5. COc1cc(N2CCN(C(C)=O)CC2)ccc1Nc1ncc(C#N)c(-c2cnc3ccccn23)n1

Result string:
1: 2.28; 2: 1.96; 3: 2.11; 4: 0.95; 5: 2.23

// assay Insulin-like growth factor 1 receptor (Homo sapiens), entry COc1cc(N2CCN(C(C)=O)CC2)ccc1Nc1nccc(-c2cnc3ccccn23)n1 , log10(IC50) value = 3.13

###

# assay comment: Intrinsic clearance in dog hepatocytes assessed per 10^6 cells
# Assay type: ADME, cell-based, Canis lupus familiaris, Liver, Hepatocyte
endpoint: hepatocyte CLint (µL/min/1e6 cells)
Give bare numbers, in µL/min/1e6 cells.

Record COc1cc(N2CCN(C(C)=O)CC2)ccc1Nc1ncc(Cl)c(-c2cnc3ccccn23)n1 , field hepatocyte CLint: 6.7

###

# assay comment: Oral bioavailability in Han Wistar rat at 10 umol/kg
# Format: ADME, organism-based
# conditions used: in vivo
endpoint: bioavailability (%)
Numbers only, in %.

Record COc1cc(N2CCN(C(C)=O)CC2)ccc1Nc1ncc(Cl)c(-c2cnc3ccccn23)n1 , field bioavailability: 49

###

# assay comment: Plasma clearance in Beagle dog at 0.8 umol/kg, iv and 10 umol/kg, po
# Format: ADME, organism-based, Canis lupus familiaris
endpoint: clearance (mL/min/kg)
Numbers only, in mL/min/kg.

Record COc1cc(N2CCN(C(C)=O)CC2)ccc1Nc1ncc(Cl)c(-c2cnc3ccccn23)n1 , field clearance: 4.7

###

# assay comment: Volume of distribution at steady state in nude mouse at 4 umol/kg, iv and 10 umol/kg, po
# Format: ADME, organism-based
# conditions used: in vivo, read-out: Vdss
endpoint: Vd (L/kg)
Give bare numbers, in L/kg.

Record COc1cc(N2CCN(C(C)=O)CC2)ccc1Nc1ncc(Cl)c(-c2cnc3ccccn23)n1 , field Vd: 0.8

###

# assay comment: Intrinsic clearance in human hepatocytes assessed per 10^6 cells
# Assay type: ADME, cell-based, Liver, Hepatocyte
endpoint: hepatocyte CLint (µL/min/1e6 cells)
Answers are plain numbers, in µL/min/1e6 cells.

Record COc1cc(N2CCN(C(C)=O)CC2)ccc1Nc1ncc(Cl)c(-c2cnc3ccccn23)n1 , field hepatocyte CLint: 6.9

###

# assay comment: Oral bioavailability in nude mouse at 10 umol/kg
# Assay type: ADME, organism-based
# conditions used: in vivo
endpoint: bioavailability
Express the reported value numerically, then name its unit.

Record COc1cc(N2CCN(C(C)=O)CC2)ccc1Nc1ncc(Cl)c(-c2cnc3ccccn23)n1 , field bioavailability: 36%

###

# experimental target: Cyclin-dependent kinase 2 (Homo sapiens)
I'd appreciate it if you could supply IC50 values for the items below.
Numbers only, in µM.

Please review the following examples before continuing.
[[record]]
smiles_text = "CC(=O)N1CCN(c2ccc(Nc3nccc(-c4cnc5ccccn45)n3)cc2)CC1"
endpoint = "IC50"
test_value = 0.078

[[record]]
smiles_text = "COc1cc(N2CCN(C(C)=O)CC2)ccc1Nc1ncc(Cl)c(-c2cnc3ccccn23)n1"
endpoint = "IC50"
test_value = 1.1

[[record]]
smiles_text = "COc1cc(N2CCN(C(C)=O)CC2)ccc1Nc1ncc(OC)c(-c2cnc3ccccn23)n1"
endpoint = "IC50"
test_value = 53

[[record]]
smiles_text = "COc1cc(N2CCN(C(C)=O)CC2)ccc1Nc1ncc(C(F)(F)F)c(-c2cnc3ccccn23)n1"
endpoint = "IC50"
test_value = 16


# next compound below
Record COc1cc(N2CCN(C(C)=O)CC2)ccc1Nc1ncc(C)c(-c2cnc3ccccn23)n1 , field IC50: 10
